- Tested on: L1210 leukemia ip in BDF1 mice, survival T/C
- Test: NCI In Vivo Anticancer Drug Screen. Data for tumor model L1210 Leukemia (intraperitoneal) in B6D2F1 (BDF1) mice
- Experimental parameters: endpoint: mean survival time; dose: 400.0 mg/kg/injection; schedule: Q04DX002 (ip); vehicle: saline; higher = longer survival
Toxic doses and inconclusive results are not listed.
Experimental endpoint: T/C

Query: May I ask what T/C has been recorded for CC[Si](CC)(CC)O[Si](CC)(CC)CC ?
Result: 97 % of control

Query: # iterate: CC(C)(N)CO
Result: 100 % of control

Query: # iterate: OCC[N+]12CN3CN(CN(C3)C1)C2
Result: 106 % of control

====

- Test system: L1210 leukemia ip in BDF1 mice, survival T/C
- Test: NCI In Vivo Anticancer Drug Screen. Data for tumor model L1210 Leukemia (intraperitoneal) in B6D2F1 (BDF1) mice
- Experimental parameters: endpoint: mean survival time; dose: 100.0 mg/kg/injection; schedule: Q04DX002 (ip); vehicle: saline with Tween-80; higher = longer survival
Toxic doses and inconclusive results are not listed.
Experimental endpoint: T/C

Query: May I ask what T/C has been recorded for N#CC[CH2][Sn]([CH2]CC#N)([CH2]CC#N)[CH2]CC#N ?
Result: 100 % of control

Query: # iterate: O=C1C(c2ccccc2)=Nc2ccccc21
Result: 88 % of control

Query: # iterate: CCOC(=S)SC/C=C/CSC(=S)OCC
Result: 97 % of control

Query: # iterate: S=P(c1ccccc1)(c1ccccc1)C(P(c1ccccc1)c1ccccc1)P(c1ccccc1)c1ccccc1
Result: 97 % of control

Query: # iterate: CCNC(=S)NNC(=O)c1ccc(N=NN(C)C)cc1
Result: 100 % of control

Query: # iterate: CCC(Cl)COP(=O)(OCC(Cl)CC)C(C(C)C)P(=O)(OCC(Cl)CC)OCC(Cl)CC (stereo not given)
Result: 96 % of control

Query: # iterate: C=CCc1ccc(OC(=O)Nc2cccc(C)c2)c(OC)c1
Result: 99 % of control

Query: # iterate: OCC1CCN1C(c1ccccc1)c1ccccc1 (stereo not given)
Result: 93 % of control

Query: # iterate: CCCCCCC#CC(=O)OCCCC
Result: 93 % of control

Query: # iterate: [O-][n+]1ccc(CCc2ccccc2)cc1
Result: 101 % of control

====

Consider the following compounds; for each one, report its T/C.
- Tested on: L1210 leukemia ip in BDF1 mice, survival T/C
- Test: NCI In Vivo Anticancer Drug Screen. Data for tumor model L1210 Leukemia (intraperitoneal) in B6D2F1 (BDF1) mice
- Experimental parameters: endpoint: mean survival time; dose: 400.0 mg/kg/injection; schedule: Q01DX001 (ip); vehicle: saline; higher = longer survival
Inconclusive results and toxic doses are left out.

Query: Find the measured T/C: item CC(=O)OCC1OC(n2cnc(N)c2C#N)C(OC(C)=O)C1OC(C)=O (configuration not stated) , target or system L1210 leukemia ip in BDF1 mice, survival T/C.
Result: 102 % of control

Query: # iterate: O=S(=O)(O)/C(=C\c1ccccc1)c1ccccc1 (tested in a mixture with another compound)
Result: 115 % of control

Query: # iterate: O=C1OC(c2ccccc2)(c2cccc3ccccc23)CC1c1ccccc1 (configuration not stated)
Result: 89 % of control

Query: # iterate: CCOC(=O)c1ccc2c3c(ccc(C(=O)OCC)c13)C=C2
Result: 100 % of control

Query: # iterate: COc1cc(/C(C)=N\N(C)C)ccc1O
Result: 96 % of control

Query: # iterate: CS(=O)(=O)OCCN(CCOS(C)(=O)=O)c1ccc([N+](=O)[O-])c(F)c1
Result: 105 % of control

Query: # iterate: CC(=O)c1ccc(N2CCCCC2)cc1
Result: 94 % of control

Query: # iterate: NCC(N)C(=O)O (configuration not stated)
Result: 94 % of control

Query: # iterate: O=C(Nc1ccc(S(=O)(=O)F)c(Cl)c1)Oc1ccccc1
Result: 96 % of control

Query: # iterate: S=C(NCCCN1Cc2ccccc2C1)Nc1ccccc1
Result: 96 % of control

Query: # iterate: O=C1Nc2cccc3cc([N+](=O)[O-])cc1c23
Result: 103 % of control

Query: # iterate: CCCC(NC(C)=O)C(=O)O (configuration not stated)
Result: 93 % of control

Query: # iterate: CC(=O)NC(Cc1cnc[nH]1)C(=O)O (configuration not stated)
Result: 97 % of control

Query: # iterate: CN(C(=O)OCc1ccccc1)c1ccc(C(=O)NC(CC(=O)O)CC(=O)O)cc1
Result: 90 % of control

Query: # iterate: CC(=O)CC(=O)Nc1ccc(Cc2ccc(Br)cc2)cc1
Result: 91 % of control

Query: # iterate: O=C(Nc1ncc([N+](=O)[O-])s1)C(F)(F)F
Result: 105 % of control

Query: # iterate: CN1C(=O)C(C)(C)C(=O)C1(C)C
Result: 117 % of control

====

- System: L1210 leukemia ip in BDF1 mice, survival T/C
- Test: NCI In Vivo Anticancer Drug Screen. Data for tumor model L1210 Leukemia (intraperitoneal) in B6D2F1 (BDF1) mice
- Experimental parameters: endpoint: mean survival time; dose: 200.0 mg/kg/injection; schedule: Q01DX009 (ip); vehicle: saline; higher = longer survival
Inconclusive results and toxic doses are left out.
Consider the following compounds; for each one, report its T/C.

Query: May I ask what T/C has been recorded for CC(C)(C)SCCC(=O)NC1CCCCC1 ?
Result: 93 % of control

Query: # iterate: O=C(O)c1ccccc1SCCO
Result: 94 % of control

Query: # iterate: c1ccc(OP2OCCO2)cc1
Result: 92 % of control

Query: # iterate: C=CCC(CC)(C(=O)OCC)C(=O)OCC
Result: 98 % of control

Query: # iterate: O=c1[nH]cc(-c2ccccc2)c(=O)[nH]1
Result: 104 % of control

Query: # iterate: NC(N)=NCCCC(=O)O
Result: 94 % of control

Query: # iterate: CC(=O)OCC1OC(n2ccc(N)nc2=O)C(OC(C)=O)C1OC(C)=O (configuration not stated)
Result: 109 % of control

Query: # iterate: c1ccc2c(c1)CNNC2
Result: 103 % of control

Query: # iterate: C/C1=C/CCCCCC1
Result: 89 % of control

Query: # iterate: CCOC(=O)NC(=S)NN
Result: 110 % of control

Query: # iterate: C[Si](C)(C)Br
Result: 87 % of control

Query: # iterate: NC(N)=N/N=C(/C=N/N=C(N)N)C(O)C(O)CO (configuration not stated)
Result: 95 % of control

Query: # iterate: CCNC(=O)CCC(N)C(=O)O (configuration not stated)
Result: 97 % of control

Query: # iterate: CCOc1ccc(NC(=O)c2cccc(Cl)c2)cc1
Result: 96 % of control

Query: # iterate: CN1C2CCC1CNC2
Result: 96 % of control

Query: # iterate: CC1=C(CC/C(C)=C/CCC(=O)O)C(C)(C)CCC1
Result: 98 % of control

Query: # iterate: O=C1c2cccc3c2C2(C45c6c7cccc6C(=O)c6cccc(c64)C(=O)c4cccc(c45)C7=O)c4c1cccc4C(=O)c1cccc(c12)C3=O
Result: 95 % of control

Query: # iterate: Cc1ccc(S(=O)(=O)Cc2ccccc2)cc1
Result: 94 % of control

Query: # iterate: c1nc2c([nH]1)CNCC2
Result: 93 % of control

Query: # iterate: COc1ccc(/C=C2/COC/C(=C/c3ccc(OC)c(OC)c3)C2=O)cc1OC
Result: 93 % of control

Query: # iterate: ClC1C(Cl)C(Cl)C(Cl)C(Cl)C1Cl (configuration not stated)
Result: 108 % of control

Query: # iterate: CC(C)(C#N)NC(N)=O
Result: 102 % of control

====

Consider the following compounds; for each one, report its T/C.
- Test system: L1210 leukemia ip in BDF1 mice, survival T/C
- Test: NCI In Vivo Anticancer Drug Screen. Data for tumor model L1210 Leukemia (intraperitoneal) in B6D2F1 (BDF1) mice
- Experimental parameters: endpoint: mean survival time; dose: 100.0 mg/kg/injection; schedule: Q04DX003 (ip); vehicle: saline; higher = longer survival
Toxic doses and inconclusive results are not listed.

Query: May I ask what T/C has been recorded for OCCCCC(O)c1ccccc1 (stereo not given) ?
Result: 116 % of control

Query: # iterate: CCCC(NC(C)=O)C(=O)O (stereo not given)
Result: 98 % of control

Query: # iterate: COC(Cl)C(Cl)(Cl)Cl (stereo not given)
Result: 103 % of control

Query: # iterate: CC1CNC(=O)O1 (stereo not given)
Result: 106 % of control

Query: # iterate: O=C1/C(=C\c2ccccc2)Cc2cc3c(cc21)OCO3
Result: 105 % of control
